Data credit: PubChem BioAssay

System: Inhibin beta A chain (activin A)
test_protocol: INHBA (activin A) binders on microarrays, primary screen, biochemical, small-molecule microarray, 635 nm fluorescence scan (AID 1107);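 also: mouse activin A protein probed at 4.33 µg/mL on printed slides; score merges bound-protein fluorescence near 667 nm with spot signal-to-noise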
test_conditions: small-molecule microarray binding, higher = more signal
Class boundaries, taken from values of composite z-score, are as follows: label 0 = under 0.7, label 1 = from 0.7 up to 1, label 2 = 1 and over

Use the examples below as a reference point.
compound	category
O=C1c2ccccc2[C@](Cc2ccccc2I)(C(=O)NCC(F)(F)F)[C@H](c2ccc(CO)cc2)N1Cc1ccccc1Cl	label 0
COc1cc2c(cc1OC)CN(C(=O)[C@H]1[C@@H]3C(=O)O[C@@H](c4ccccc4)[C@@H](c4ccccc4)N3[C@@H](c3ccc(O)cc3)[C@]13C(=O)Nc1ccc(C#CCCO)cc13)CC2	label 0

Hey, which category is "O=C1O[C@H](c2ccccc2)[C@H](c2ccccc2)N2[C@H]1[C@@H](C(=O)N1CCCCCCC1)[C@]1(C(=O)Nc3ccc(C#CC4=CCCCC4)cc31)[C@H]2c1ccc(OCCO)cc1" in, do you know?
label 2

Hey, which category is "CN(C)CCCCCCNC(=O)[C@H]1C[C@H]2C(=O)N[C@@H](CCCCN)C(=O)N2[C@H]1c1cccc(OCCO)c1" in, do you know?
label 2

Hey, which category is COc1cc(NN2C(C(O)c3ccco3)C=CC3C(=O)N(c4ccccc4)C(=O)C32)cc(OC)c1OC (stereo not drawn) in, do you know?
label 1

Hey, which category is "COc1ccc([Si](C)(C)[C@@H]2[C@@H](CC(=O)N3CCC[C@H]3CO)O[C@]3(C(=O)N(c4ccccc4)c4ccccc43)[C@H]2C)cc1" in, do you know?
label 1
